Biological target: apical domain of CD71 (Screen 3: 'cynomolgus apical domain of human CD71') (cynomolgus (as paragraph 454 words it; ambiguous))
Experiment: primary ELISA
readout-kind: RLU (RLU)

binder	RLU, RLU
CD71-binding FN3 domain SEQ ID NO: 320 (designed binder) MSLPVPKNLVVSRVTEDSARLSWTAPDAAFDSFEIGYWENAYKGEAIVLTVPGSERSYDLTGLKPGTEYWVQIGGVKGGNWSAPLSAIFTT	3.99e+06
CD71-binding FN3 domain SEQ ID NO: 261 (designed binder) MSLPAPKNLVVSRVTEDSARLSWTAPDAAFDSFYIAYAEPRPDGEAILLWVPGSERSYDLTGLKPGTEYSVLIHGVKGGLLSSPLHAYFTT	4.57e+06
